- experimental-system: human GLP-1 receptor (human, UniProt P43220 24-463)
- test-details: cell-based or functional assay
Bridge positions count the residues as written; N and C are the ends. Square brackets hold non-standard residues; d marks the D form. Ends that are not written are not given here. PhLac = O=C(O)[C@@H](O)Cc1ccccc1
What GLP-1 agonism EC50 was measured for each of the following?
Report the figure along with its unit, number first.

Value of GLP-1 agonism EC50 reported for the binder [PhLac]TSDYSKYLDERRAKDFVQWLMDT-NH2 (lactam 11-15) [[PLA6, E16K20(lactam), D28]G(6-29)] is 10.6 nM

Value of GLP-1 agonism EC50 reported for the binder HAEGT[PhLac]TSDYSKYLDERRAKDFVQWLMDT-NH2 (lactam 16-20; also: PLA6 linked to Thr5 by an ester bond (depsipeptide)) [[H1A2E3-O-PLA6, D9, E16K20(Lactam), D28] G(1-29)] is 6.2 nM

Value of GLP-1 agonism EC50 reported for the binder SQGT[PhLac]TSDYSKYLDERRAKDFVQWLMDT-NH2 (lactam 15-19; also: ester (depsipeptide) bond Thr5-PLA6) [[S2Q3-O-PLA6, D9, E16K20(Lactam), D28] G(2-29)] is 45.7 nM

Value of GLP-1 agonism EC50 reported for the binder AEGT[PhLac]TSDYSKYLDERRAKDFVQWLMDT-NH2 (lactam 15-19; also: PLA6 linked to Thr5 by an ester bond (depsipeptide)) [[A2E3-O-PLA6, D9, E16K20(Lactam), D28] G(2-29)] is 14 nM
